Target Of Assay: Cytochrome P450 2D6 (Homo sapiens) (UniProt P10635)
Sequence (P10635 whole entry, looked up): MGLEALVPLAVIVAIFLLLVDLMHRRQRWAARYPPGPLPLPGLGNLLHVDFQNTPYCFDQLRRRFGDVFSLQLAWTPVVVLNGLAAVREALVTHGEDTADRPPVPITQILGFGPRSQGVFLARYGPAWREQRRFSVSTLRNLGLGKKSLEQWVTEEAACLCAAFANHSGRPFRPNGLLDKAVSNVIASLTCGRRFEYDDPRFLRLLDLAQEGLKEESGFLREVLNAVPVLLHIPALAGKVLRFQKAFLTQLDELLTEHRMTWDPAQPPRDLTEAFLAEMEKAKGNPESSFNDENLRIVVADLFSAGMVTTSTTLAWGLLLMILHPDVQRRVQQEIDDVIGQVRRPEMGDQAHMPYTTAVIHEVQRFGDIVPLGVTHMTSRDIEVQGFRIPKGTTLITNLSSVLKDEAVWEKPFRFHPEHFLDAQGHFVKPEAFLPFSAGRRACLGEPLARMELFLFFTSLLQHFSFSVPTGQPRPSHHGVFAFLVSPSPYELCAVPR
Test: Cytochrome panel assay with activity outcomes
Condition Details: recombinant CYP, pro-luciferin dealkylation, luminescence, p450-cyp2d6; series mostly up to 57.1 µM
Among all 16,000 compounds or so, about 2,600 (16%) were called active. Roughly 20% stayed inconclusive and do not appear here. Calls follow the shape of the dose curve; as a rule, active = well fitted curve in the direction sought with a large enough effect; inconclusive = small, poorly fitted or top-dose-only effect, or effect the other way; inactive = no such curve, though single readings can be large or run the other way. Not all results are given here.
Answer with one of the outcomes T = active, F = inactive

In: Test call, this compound: C[C@@]12C(=O)OC(=O)[C@@]1(C)[C@@H]1CC[C@@H]2O1
Out: F

In: Test call, this compound: COc1ccc(CN2CN=C(Nc3nc4ccccc4s3)NC2)cc1
Out: T

In: Test call, this compound: O=C(O)c1cc2c(o1)CCC/C2=N\O
Out: F

In: Test call, this compound: O=c1c(-c2cc(F)cc(F)c2)nc2cncnc2n1-c1ccccc1
Out: F

In: Test call, this compound: C=CCSc1nc(C)cc(/C=C\c2ccccc2)c1C#N
Out: T

In: Test call, this compound: C=CCSc1nc(Oc2ccccc2)c2sccc2n1
Out: F

In: Test call, this compound: CC(=O)NCCNc1ncnc2ccc(-c3ccc4c(c3)OCO4)cc12
Out: T

In: Test call, this compound: COc1ccc(NC(=O)CSc2nnc(Cc3cccn3C)n2CCc2ccccc2)c(OC)c1
Out: T

In: Test call, this compound: CC1=CC(=C2C(=O)c3ccccc3C2=O)C=C(C)N1Cc1ccco1
Out: F

In: Test call, this compound: CCC(C#CCN1CCCCC1)(CC)OCCC#N
Out: F

In: Test call, this compound: CCOc1ccc(C(CC(=O)O)NC(=O)COc2ccccc2)cc1 (stereo not given)
Out: F

In: Test call, this compound: Cc1ccc(C)n1N1C(=O)/C(=C\c2ccc(Cl)cc2)SC1=S
Out: F

In: Test call, this compound: c1nc(NCCN2CCOCC2)c2cc(-c3ccoc3)ccc2n1
Out: T

In: Test call, this compound: c1ccc2sc(NC3=NCN(C4CCCCCC4)CN3)nc2c1
Out: T

In: Test call, this compound: CCNc1ncc2nc(-c3ccc(OC)cc3)c(=O)n(-c3ccc(OC)cc3)c2n1
Out: F

In: Test call, this compound: Oc1ccccc1-c1cc(-c2ccccc2)no1
Out: F

In: Test call, this compound: COCCN1C(=O)c2ccccc2C(C(=O)Nc2ccc3c(c2)OCCO3)C1c1ccc(F)cc1 (stereo not given)
Out: F

In: Test call, this compound: Brc1[nH]nc2ccccc12
Out: F

In: Test call, this compound: Cc1ccc(S(=O)(=O)n2ccc(-c3cccc(OCc4c(F)cccc4Cl)c3)n2)cc1
Out: F

In: Test call, this compound: CC(C)c1ccc2nc3sc(C(=O)N4CCc5ccccc5C4)c(N)c3cc2c1
Out: F

In: Test call, this compound: Cc1c(Br)cc(C(=O)NC2CCCCC2)c(C)c1C
Out: F

In: Test call, this compound: COc1ccc(O)c(/C=N/NC(=O)c2ccc(OCc3cccc(Br)c3)cc2)c1
Out: F

In: Test call, this compound: CCn1c(COc2ccccc2)nnc1SCC(=O)Nc1cc(OC)ccc1OC
Out: F

In: Test call, this compound: Cc1ccc(S(=O)(=O)CCc2nnc(NC(=O)COc3cccc(C)c3)s2)cc1
Out: F

In: Test call, this compound: C/C(=N\N=C1\NC(=O)CC(C(=O)O)S1)c1cccs1 (stereo not given)
Out: F

In: Test call, this compound: Cn1c(=O)c2c3c(sc2n2cnnc12)CCC3
Out: F

In: Test call, this compound: Cc1noc(C)c1C(=O)N1CCC2(CCN(C(=O)NC(C)C)CC2)CC1
Out: F

In: Test call, this compound: CC(C)C(O)(C#CCN1CCCC1)c1ccccc1 (stereo not given)
Out: T

In: Test call, this compound: CCNc1ncc2nc(-c3cc(F)cc(F)c3)c(=O)n(-c3ccccc3)c2n1
Out: T

In: Test call, this compound: C[C@]1(OC(=O)/C=C\c2ccccc2)C[C@@H](O)[C@@]2(O)C=CO[C@@H](O[C@H]3O[C@@H](CO)[C@@H](O)[C@@H](O)[C@@H]3O)[C@H]21
Out: F

In: Test call, this compound: COc1ccc(OC)c(C(=O)CSc2nnc(Cc3cccs3)n2CCc2ccccc2)c1
Out: T

In: Test call, this compound: O=c1c2ccccc2nc2n1C(CSc1ccc(F)cc1)CN2 (stereo not given)
Out: F

In: Test call, this compound: Cc1cc(C)c(C#N)c(Oc2ccccc2)n1
Out: F

In: Test call, this compound: CN(C)CCn1c(=O)n(Cc2ccco2)c(=O)c2c3c(sc21)CCCCC3
Out: T

In: Test call, this compound: Cc1c(NC(=O)CSc2nnc3c4ccccc4n(CCc4ccccc4)c3n2)c(=O)n(-c2ccccc2)n1C
Out: F

In: Test call, this compound: CCN1C(=O)C(O)(CC(=O)/C=C/C=C/c2ccccc2)c2ccccc21 (stereo not given)
Out: F

In: Test call, this compound: CNC(=O)NC(=O)CSc1nnc(-c2ccco2)n1Cc1ccccc1
Out: F

In: Test call, this compound: Cn1c(=O)c2cn(-c3ccccc3)cc2n(C)c1=O
Out: F

In: Test call, this compound: O=c1c(CCc2ccccc2)nc2cnc(Oc3ccccc3)nc2n1C1CC1
Out: F

In: Test call, this compound: O=C(NNc1nc2ccccc2s1)C1CC1
Out: F

In: Test call, this compound: COc1ccc(-c2cc(C(F)(F)F)n3nc(C(=O)NCc4ccco4)c(Cl)c3n2)cc1
Out: F

In: Test call, this compound: Cn1cc(C(=O)N/N=C/C(Br)=C\c2ccccc2)ccc1=O
Out: F

In: Test call, this compound: COc1ccc(C(=O)NCc2ccc(-c3nc4ccccc4s3)cc2)cc1
Out: F

In: Test call, this compound: N[C@@H](CS(=O)O)C(=O)O
Out: F

In: Test call, this compound: C[C@H](N[C@@H](C)COc1ccccc1)[C@H](O)c1ccc(O)cc1
Out: T
